Origin of values: the nanobody polyreactivity screen of Harvey et al. (2022)

- assay_protocol: yeast display, Sf9 membrane polyspecificity reagent, FACS + sequencing; frameworks hold sequencing errors
measured_attribute: polyreactivity (PSR sort gate)

Here's what some known entries look like.
residue_codes: QVQLVESGVGLVQAGGSLRLSCADSGFTFRRYVMGWYRQAPGKERELVAGISASGDSTYYADSVKGRFTISRDYAKNTFYLQMNSLKPEDTAVYYCATVARYRYLESYYWGQGTQVTVSS
polyreactivity (PSR sort gate): high polyreactivity
--
residue_codes: QVQLVESGGGLVQAGGSLRLSCAASGSTFNRNTMGWYRQAPGKERELLAAISRRGGSTYYADSVKGRFTISRDNAKNTVYLQMNSLKPEDTAVYYCAAGREYRVYKGAQEFDYWGQGTQVTVSS
polyreactivity (PSR sort gate): high polyreactivity
--
residue_codes: QVQLVESGGGLVQAGGSLRISCAASGSTFVRNAMGWYRQAHGKERELVAAISVDGSSTYDADSVKGRFTISRDNAKNTVYLQMNSLKREDTAVYYCNADWEYRDFYDITYDYWGQGTQVTVSS
polyreactivity (PSR sort gate): low polyreactivity
--
residue_codes: QVQLVESAGGLVQAGGSLRLSCAASGFIFSRNAMGWYRQAPGKERELVAAISGTGGRTYYADSVKGRFTLSRDNAKNTVYLQMNSLKTEDTAVYYCAADKRIGGFGYWGQGTQVTVSS
polyreactivity (PSR sort gate): high polyreactivity

Any idea what polyreactivity (PSR sort gate) was measured for QVQLVESGGGLVQAGGSLRLSCAASGRTFKYYAMGWYRQAPGKERELVAASTTGGSTHYADSVKGRFTISRDNAKNTVYLQMNSLKPEDTAVYYCAAGPFARYDYWGQGTQVTVSS ?
low polyreactivity
